Target: Der f 1 (Dermatophagoides farinae, UniProt P16311)
Construct: Add 1.0 ml of 20 ug/ml Dermatophagoides farinae mite extract; from tissue; host or cells: Dermatophagoides farinae mite extract (crude)
Sequence (P16311 99-321): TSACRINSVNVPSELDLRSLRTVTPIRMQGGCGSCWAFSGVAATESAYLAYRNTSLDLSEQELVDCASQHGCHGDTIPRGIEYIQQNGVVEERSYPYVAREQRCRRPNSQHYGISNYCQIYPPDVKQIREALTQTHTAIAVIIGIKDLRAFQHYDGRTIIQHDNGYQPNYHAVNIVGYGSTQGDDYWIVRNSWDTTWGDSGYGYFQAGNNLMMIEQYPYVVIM
Assay: ELISA efficacy determination protocol, allergen neutralization versus Der f 1
Format: biochemical
Conditions: Versus Der f 1; 0.26 wt.% active ion in composition before sample preparation; pH 3.5; normalized to water control
% of Allergen Neutralized of 70% or higher: 1. Under 70%: 0.

Answered cases to consult:
CC(O)C(=O)[O][Al]([O]C(=O)C(C)O)[O]C(=O)C(C)O (centres unmarked) [Al Lactate, reference compound]
0
O=S(=O)([O-])[O-].O=S(=O)([O-])[O-].[Al+3].[K+] [AlK(SO4)2]
0
O=[N+]([O-])[O-].O=[N+]([O-])[O-].O=[N+]([O-])[O-].[Al+3]
1
[Cl][Al]([Cl])[Cl]
1

Moving on to another compound below.
Exercise: Please check the record O=S(=O)([O-])[O-].O=S(=O)([O-])[O-].O=S(=O)([O-])[O-].[Al+3].[Al+3] [Al2(SO4)3] and state if its % of Allergen Neutralized is at or above 70%.
Solution: 0

###

Reported % of Allergen Neutralized values for the following compounds.
Target: Der f 2 (Dermatophagoides farinae, UniProt Q00855)
Construct: Add 1.0 ml of 20 ug/ml Dermatophagoides farinae mite extract; from tissue; host or cells: Dermatophagoides farinae mite extract (crude)
Sequence (Q00855 18-146): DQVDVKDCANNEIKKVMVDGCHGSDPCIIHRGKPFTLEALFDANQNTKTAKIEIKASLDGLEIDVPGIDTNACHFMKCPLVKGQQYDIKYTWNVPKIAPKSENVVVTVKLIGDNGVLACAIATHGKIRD
Assay: ELISA efficacy determination protocol, allergen neutralization versus Der f 2
Assay type: biochemical
Conditions: 0.26 wt.% active ion in composition before sample preparation, pH 3.5, normalized to water control
Give your result in % as a bare value.

Take a look at these entries with their results.
O=S(=O)([O-])[O-].O=S(=O)([O-])[O-].[Al+3].[K+] [AlK(SO4)2]
23
[Cl][Al]([Cl])[Cl] [AlCl3]
17
CC(O)C(=O)[O][Al]([O]C(=O)C(C)O)[O]C(=O)C(C)O (centres unmarked) [Al Lactate, reference compound]
17

Exercise: Quick one: % of Allergen Neutralized of O=[N+]([O-])[O-].O=[N+]([O-])[O-].O=[N+]([O-])[O-].[Al+3] [Al(NO3)3] ?
Solution: 50

Exercise: Similarly, O=S(=O)([O-])[O-].O=S(=O)([O-])[O-].O=S(=O)([O-])[O-].[Al+3].[Al+3] [Al2(SO4)3] ?
Solution: 6
